# System: CCRF-CEM leukemia
# protocol_text: NCI tumour cell line growth inhibition, 48 h; in the data active = GI50 below about 0.43 µM; inactive = the rest
Choose the fitting class; nothing outside YES = active, NO = inactive is accepted.

# example entries with known answers
| molecule | cat |
| --- | --- |
| CN1C(=O)CNC(=O)[C@H](NC(=O)c2nc3ccccc3cc2O)CSSC[C@H]1C(=O)NCCc1nc2ccccc2cc1O | NO |
| Cn1c(COC(=O)N2CCCCC2)nc2c(N3CCOCC3)nc(-c3ccccc3)nc21 | YES |
| O=C1OCC(C#Cc2ccccc2)=C1Cl | YES |
| CCc1c2c(nc3cc4c(cc13)OCO4)-c1cc3c(c(=O)n1C2)COC(=O)[C@@]3(CC)OC(=O)CN | YES |
| CC(=O)O[C@H]1CC[C@]2(C)[C@H]3CC[C@@H]4[C@H]5[C@H](C(C)C)CC[C@]5(C(=O)OCC(CO)(CO)N=C(N)N)CC[C@@]4(C)[C@]3(C)CC[C@H]2C1(C)C | NO |
| CCOC(=O)CC1(O)C=CC(=O)C=C1 | NO |

Query: recorded result category for CC1(C)N=C(N)N=C(N)N1c1ccc(F)c(C(F)(F)F)c1 in this test
NO

Identify the outcome logged in this assay for the molecule shown: CC(=O)OC1COC(S[As](C)C)C(OC(C)=O)C1OC(C)=O (stereo not drawn)
YES
